Provide the reported IC50 of each item.
# System: P815, murine mastocytoma cell
# test_description: In vitro cytotoxicity (MTT) on P815
# Format: cell-based
# stated_conditions: Mus musculus, 72-hour cell culture
Quick reminder: number only, in µM, skip the unit.

Short answer for CN1CCN(c2nc(NCCc3ccc(Nc4nc(Nc5cccc(N)c5)nc(N5CCN(C)CC5)n4)cc3)nc(Nc3cccc(N)c3)n2)CC1 : IC50 was 0.7

The value of IC50 measured for the molecule Nc1ccc(CCNc2nc(NCCCCO)nc(Nc3cccc(N)c3)n2)cc1 turned out to be 92

Data point: Nc1cccc(CCNc2nc(Nc3ccc(CCNc4nc(NCCO)nc(Nc5cccc(N)c5)n4)cc3)nc(Nc3cccc(N)c3)n2)c1 ; IC50 = 3.3

// Oc1ccc(CCNc2nc(NCCNc3nc(NCCc4ccc(O)cc4)nc(Nc4ccccc4)n3)nc(Nc3ccccc3)n2)cc1 : IC50 value = 34

# IC50 of Nc1ccc(CCNc2nc(Nc3ccc(CCNc4nc(NCCO)nc(Nc5cccc(N)c5)n4)cc3)nc(Nc3cccc(N)c3)n2)cc1 = 2.2

For this molecule ( CC(Nc1nc(Nc2cccc(N)c2)nc(Nc2cccc(N)c2)n1)c1cccc(N)c1 (stereo not drawn) ), measured IC50 is 36.6

Kindly note the recorded IC50 for Nc1cccc(Nc2nc(NCCO)nc(NCCc3ccc(Nc4nc(NCCc5ccccc5N)nc(Nc5cccc(N)c5)n4)cc3)n2)c1 , which is 1.5

# IC50 of Nc1ccc(CCNc2nc(NCCNc3nc(NCCc4ccc(N)cc4)nc(Nc4cccc(N)c4)n3)nc(Nc3cccc(N)c3)n2)cc1 = 3

The recorded IC50 for entry Nc1cccc(Nc2nc(NCCNc3nc(Nc4cccc(N)c4)nc(Nc4cccc(O)c4)n3)nc(Nc3cccc(O)c3)n2)c1 equals 4.8

get_value(item= CN(C)c1nc(NCCc2ccc(Nc3nc(NCCO)nc(Nc4cccc(N)c4)n3)cc2)nc(Nc2cccc(N)c2)n1 , readout=IC50) returns 2.8

# IC50 (molecule: Nc1cccc(Nc2nc(NCCO)nc(NCc3cccc(F)c3)n2)c1 ) is 43

Quick note, IC50 for Nc1cccc(Nc2nc(NCCO)nc(Nc3ccc(Nc4nc(NCCO)nc(Nc5cccc(F)c5)n4)cc3)n2)c1 landed at 8.6

Looking up CN1CCN(c2nc(Nc3ccc(CCNc4nc(NCCO)nc(Nc5cccc(N)c5)n4)cc3)nc(Nc3cccc(N)c3)n2)CC1 , I see its IC50 listed as 2.1

Looking up Nc1cccc(Nc2nc(N)nc(Nc3cccc(Nc4nc(N)nc(Nc5cccc(N)c5)n4)c3)n2)c1 , I found its IC50 recorded as 44.7

* * *

# Test system: B16F10, murine melanoma cell
# test_description: In vitro cytotoxicity (MTT) on B16F10
# Assay type: cell-based
# stated_conditions: Mus musculus, B16-F10; 24-hour cell culture
assay_metric: log10 of IC50 (log10 of the value in µM)
Quick note: numbers are log10 of IC50, with µM as the unit.

Lab note: measured log10 of IC50 of Nc1cccc(Nc2nc(NCCO)nc(Nc3cccc(Nc4nc(NCCO)nc(Nc5cccc(N)c5)n4)c3)n2)c1 was 0.41

The recorded log10 of IC50 for entry Nc1cccc(Nc2nc(NCCO)nc(Nc3cccc(Nc4nc(NCCO)nc(Nc5cccc(F)c5)n4)c3)n2)c1 equals 0.41

Form: compound = Nc1cccc(Nc2nc(NCCO)nc(NCCc3ccc(Nc4nc(NCCc5ccccc5N)nc(Nc5cccc(N)c5)n4)cc3)n2)c1 ; log10 of IC50 = 0.08

// field: log10 of IC50; key: CN(C)c1nc(NCCc2ccc(Nc3nc(NCCO)nc(Nc4cccc(N)c4)n3)cc2)nc(Nc2cccc(N)c2)n1 ; value = 0.08

According to the records, this compound Nc1cccc(Nc2nc(N)nc(Nc3cccc(Nc4nc(N)nc(Nc5cccc(N)c5)n4)c3)n2)c1 displays log10 of IC50 of 0.93

Noted for CN(C)c1nc(NCCc2ccc(Nc3nc(Nc4cccc(N)c4)nc(N(C)C)n3)cc2)nc(Nc2cccc(N)c2)n1 : its log10 of IC50 reads 0.34

Summary for this compound, Nc1ccc(CCNc2nc(Nc3ccc(CCNc4nc(NCCO)nc(Nc5cccc(N)c5)n4)cc3)nc(Nc3cccc(N)c3)n2)cc1 : log10 of IC50 is 0.00

Looking up Nc1ccc(CCNc2nc(NCCCCO)nc(Nc3cccc(N)c3)n2)cc1 , I see its log10 of IC50 listed as 1.52

Record Nc1cccc(Nc2nc(NCCO)nc(Nc3ccc(Nc4nc(NCCO)nc(Nc5cccc(N)c5)n4)cc3)n2)c1 . Reported log10 of IC50: 1.08

Nc1cccc(CCNc2nc(Nc3ccc(CCNc4nc(NCCO)nc(Nc5cccc(N)c5)n4)cc3)nc(Nc3cccc(N)c3)n2)c1 yielded log10 of IC50 of 0.26

For Nc1cccc(Nc2nc(NCCO)nc(Nc3ccc(Nc4nc(NCCO)nc(Nc5cccc(F)c5)n4)cc3)n2)c1 the compound record lists log10 of IC50 as 0.45

Lab note: Oc1ccc(CCNc2nc(NCCNc3nc(NCCc4ccc(O)cc4)nc(Nc4ccccc4)n3)nc(Nc3ccccc3)n2)cc1 gave log10 of IC50 of 0.78

Per the records, this compound ( CN1CCN(c2nc(Nc3ccc(CCNc4nc(NCCO)nc(Nc5cccc(N)c5)n4)cc3)nc(Nc3cccc(N)c3)n2)CC1 ) has log10 of IC50 equal to 0.28

Looking up CN1CCN(c2nc(NCCc3ccc(Nc4nc(Nc5cccc(N)c5)nc(N5CCN(C)CC5)n4)cc3)nc(Nc3cccc(N)c3)n2)CC1 , I found its log10 of IC50 recorded as 0.04
